experiment_description: qHTS assay to identify small molecule antagonists of the androgen receptor (AR) signaling pathway using the MDA cell line in the presence of 0.5 nM R1881 - cell viability counter screen (AID 1259242); further: nearly all actives have a fitted effect of over 45% in size
conditions_used: MDA-kb2 viability, CellTiter-Fluor protease fluorescence, 16 h; series mostly up to 92.4 µM
Records with an inconclusive call do not appear. Active and inactive are the calls of the source. The call rests on the fitted dose curve; in most records, active means well fitted cell-killing curve with a large enough effect in the repeat runs; inconclusive means weak or mixed curves, or effect the other way; inactive means flat fitted curve, though single readings scatter.
Return exactly one item of yes (active), no (inactive)

Previously resolved entries follow.
NCCCCCC(=O)O = no
CNC1(C)C2CCC(C2)C1(C)C (stereo not drawn) = no
CCN(CC)c1ccc2c(C)cc(=O)oc2c1 = no
[Cl][In]([Cl])[Cl] = no
CCCCOCCOC(=O)c1ccccc1C(=O)OCCOCCCC = no

Please indicate how the test categorized `O` .
no

Lab log entry: `Cc1ccc(-c2cc(C(F)(F)F)nn2-c2ccc(S(N)(=O)=O)cc2)cc1` — outcome as called in the assay?
no

Per the assay record, what outcome was assigned to CCCNC(C)C(=O)Nc1ccccc1C (stereo not drawn) ?
no

How was `CC(C)CCOC(=O)c1ccc(N(C)C)cc1` classified in this test?
no

What is the recorded call for this compound in the test? `CC(C)C(=O)c1c(C(C)C)nn2ccccc12`
no

Returns: the outcome recorded for `Oc1c(Cl)cc(Cl)c(Cl)c1Cc1c(O)c(Cl)cc(Cl)c1Cl` in this assay.
yes

Assay result, entry CCC(C)(Oc1ccc(C2(c3ccc(OC(C)(CC)C(=O)O)cc3)CCCCC2)cc1)C(=O)O (stereo not drawn) — outcome?
no

Hi, sorry to bother you, what did the test record for `COC(=O)[C@H]1[C@H]2C[C@@H]3c4[nH]c5cc(OC)ccc5c4CCN3C[C@H]2C[C@@H](OC(=O)c2cc(OC)c(OC)c(OC)c2)[C@@H]1OC` ?
no
